Each record here notes measured KD ratio: IL-18BP/IL-18Rα.
Biological target: T1, human IL-18BP (amino acids 31-194) (human, UniProt O95998 31-194, biotinylated on the AviTag (BirA ligase) where immobilized or used for staining)
T1 construct: Secreted decoy receptor; made in insect cells (gp67 signal peptide); also called hIL-18BP
T1 sequence: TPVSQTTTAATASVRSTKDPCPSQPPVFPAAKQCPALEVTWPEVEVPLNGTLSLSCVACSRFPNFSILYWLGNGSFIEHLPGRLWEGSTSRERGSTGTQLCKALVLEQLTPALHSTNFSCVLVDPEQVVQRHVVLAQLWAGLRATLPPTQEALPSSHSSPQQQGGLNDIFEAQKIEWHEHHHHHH
Experiment: on-yeast isotherms; KD IL-18BP / KD IL-18Rα (20 µM used for NBD)
endpointLabel: KD ratio: IL-18BP/IL-18Rα

[
  {
    "binder": "hH3 (ligand) RFGKLESRLSVIRNLNDQVLFIDQGNRPLFEDMTDSDCRDNAPRTIFIISTYKDSQPRGKAVTISVKCEKISTLSCENKIISFKEMNPPDNIKDTKSDIIFFQRDVPGHKHKMQFESSSYEGYFLACEKERDLFKLILKKEDELGDRSIMFTVQNED",
    "inequalityOperator": ">",
    "numericReadout": 239
  },
  {
    "binder": "hB9 (ligand) RFGKHESKLSVIRNLNDQVLFIDQGNRPLFEDMTDSDCRDNAPRTIFIISTYRDSQPRGKAVTISVKCEKISTLSCENKIISFKEMNPPDNIKDTKSDIIFFERNVPGHKYKMQFESSSYEGYFLACEKERDLFKLILKKEDELGDRSIMFTVQNED",
    "inequalityOperator": ">",
    "numericReadout": 157
  },
  {
    "binder": "6-27 (ligand, recombinant with C-terminal hexahistidine tag in SPR and cell assays; also called h6-27; version 2.0 human DR-IL-18 variant) YFGKLESKLSVIRNLNDQVLFIDQGNRPLFEDMTDSDCRDNAPRTIFIISKYSDSRARGLAVTISVKCEKISTLSCENKIISFKEMNPPDNIKDTKSDIIFFARSVPGHGRKTQFESSSYEGYFLACEKERDLFKLILKKEDELGDRSIMFTVQNED",
    "inequalityOperator": "=",
    "numericReadout": 480
  },
  {
    "binder": "6-12 (ligand, recombinant with C-terminal hexahistidine tag in SPR and cell assays; also called h6-12; version 2.0 human DR-IL-18 variant) YFGKLESKLSVIRNLNDQVLFIDQGNRPLFEDMTDSDCRDNAPRTIFIISKYSDSLARGLAVTISVKCEKISTLSCENKIISFKEMNPPDNIKDTKSDIIFFQRDVPGHSRKMQFESSSYEGYFLACEKERDLFKLILKKEDELGDRSIMFTVQNED",
    "inequalityOperator": "=",
    "numericReadout": 1200
  },
  {
    "binder": "hA8 (ligand, also called human DR-IL-18 variant A8) YFGKLESRLSVIRNLNDQVLFIDQGNRPLFEDMTDSDCRDNAPRTIFIISKYKDKQPRAQAVTISVKCEKISTLSCENKIISFKEMNPPDNIKDTKSDIIFFQRDVPGHKHKMQFESSSYEGYFLACEKERDLFKLILKKEDELGDRSIMFTIQNED",
    "inequalityOperator": ">",
    "numericReadout": 347
  }
]
